- Tested on: CCRF-CEM leukemia
- MEASUREMENT DESCRIPTION: NCI tumour cell line growth inhibition, 48 h; in the data active = GI50 below about 0.43 µM; inactive = the rest
Allowed answers: active, inactive

Task: What outcome does the record of this test show for `CC1(C)N=C(N)N=C(N)N1c1ccc(OCC(=O)N2CCOCC2)c(Cl)c1` ?
Output: inactive

Task: Give the logged outcome of this assay for the following compound: `O=C(N/N=c1/ccoc2cccnc12)N1CCN(c2ncccn2)CC1`
Output: active

Task: Outcome logged for `COc1cc(C(=O)/C=C/c2c(-c3ccc(F)cc3)nc3ncccn23)cc(OC)c1OC` in this assay:
Output: inactive

Task: Outcome? `COc1cc(-n2cc(-c3ccc(F)cc3)[nH]c2=S)cc(OC)c1OC`
Output: inactive

Task: In this assay, the call recorded for O=C(CC(O)c1ccncc1)c1ccccc1 (centres undefined) was what?
Output: inactive

Task: Which outcome was assigned to `c1ccc2c(-c3nc4ccccc4[nH]3)cccc2c1` in this test?
Output: inactive

Task: For `O=C1CSC(=S)N1Cc1cccnc1` , what call appears in the results of this test?
Output: inactive

Task: What outcome does the record of this test show for `c1ccc2c(Nc3ccc(Oc4ccc(Nc5c6ccccc6nc6ccccc56)cc4)cc3)c3ccccc3nc2c1` ?
Output: active

Task: Test call for this compound, please: CC1CC(C)/C(=N/NC(N)=O)C(C(O)CC2CCC(=O)NC2=O)C1 (centres undefined)
Output: inactive
